Each record here notes measured pIC50.
Biological target: AAK1 (GST-Xa-hAAK1) (Homo sapiens (Human))
Assay: AAK1 Kinase Assay
Type: biochemical
Details: Table 1a, listed as IC50 ranges; ATP 22 μM; read-out: AAK1 IC50
Method: The assays were performed in U-bottom 384-well plates. […] The reactions were initiated by the combination of bacterially expressed, GST-Xa-hAAK1 with substrates and test compounds. The reactions were incubated at room temperature for 3 hours and terminated by adding 60 μl of 35 mM EDTA buffer to each sample. […] Compounds were dissolved at 10 mM in dimethylsulfoxide (DMSO) and evaluated at eleven concentrations. IC50 values were derived by non-linear regression analysis.
pIC50: −log10 of the molar value.

Some solved cases for reference:
- test_smiles: "CC(=O)Nc1cc2c(cn1)COc1cc(NC(=O)[C@@H](N)CC(C)C)ccc1-2"
  value_reported: "7.00 to 8.00"
- test_smiles: "CN(C)CC(=O)Nc1ccc2c(c1)OCc1cnccc1-2"
  value_reported: "5.92 to 7.00"
- test_smiles: "CC(C)CCC(=O)Nc1ccc2c(c1)OCc1cnccc1-2"
  value_reported: "7.00 to 8.00"

Q) Name the recorded pIC50 of the compound listed here: `N#CCCC(=O)Nc1ccc2c(c1)OCc1cnccc1-2`
A) 5.92 to 7.00

Q) Name the recorded pIC50 of the compound listed here: `CC(C)C[C@H](N)C(=O)Nc1ccc2c(c1)oc(=O)c1cnccc12`
A) 5.92 to 7.00

---

biological target: AAK1 (GST-Xa-hAAK1) (Homo sapiens (Human), UniProt Q2M2I8); assay: AAK1 Kinase Assay; assay type: biochemical
Sequence (Q2M2I8 whole entry): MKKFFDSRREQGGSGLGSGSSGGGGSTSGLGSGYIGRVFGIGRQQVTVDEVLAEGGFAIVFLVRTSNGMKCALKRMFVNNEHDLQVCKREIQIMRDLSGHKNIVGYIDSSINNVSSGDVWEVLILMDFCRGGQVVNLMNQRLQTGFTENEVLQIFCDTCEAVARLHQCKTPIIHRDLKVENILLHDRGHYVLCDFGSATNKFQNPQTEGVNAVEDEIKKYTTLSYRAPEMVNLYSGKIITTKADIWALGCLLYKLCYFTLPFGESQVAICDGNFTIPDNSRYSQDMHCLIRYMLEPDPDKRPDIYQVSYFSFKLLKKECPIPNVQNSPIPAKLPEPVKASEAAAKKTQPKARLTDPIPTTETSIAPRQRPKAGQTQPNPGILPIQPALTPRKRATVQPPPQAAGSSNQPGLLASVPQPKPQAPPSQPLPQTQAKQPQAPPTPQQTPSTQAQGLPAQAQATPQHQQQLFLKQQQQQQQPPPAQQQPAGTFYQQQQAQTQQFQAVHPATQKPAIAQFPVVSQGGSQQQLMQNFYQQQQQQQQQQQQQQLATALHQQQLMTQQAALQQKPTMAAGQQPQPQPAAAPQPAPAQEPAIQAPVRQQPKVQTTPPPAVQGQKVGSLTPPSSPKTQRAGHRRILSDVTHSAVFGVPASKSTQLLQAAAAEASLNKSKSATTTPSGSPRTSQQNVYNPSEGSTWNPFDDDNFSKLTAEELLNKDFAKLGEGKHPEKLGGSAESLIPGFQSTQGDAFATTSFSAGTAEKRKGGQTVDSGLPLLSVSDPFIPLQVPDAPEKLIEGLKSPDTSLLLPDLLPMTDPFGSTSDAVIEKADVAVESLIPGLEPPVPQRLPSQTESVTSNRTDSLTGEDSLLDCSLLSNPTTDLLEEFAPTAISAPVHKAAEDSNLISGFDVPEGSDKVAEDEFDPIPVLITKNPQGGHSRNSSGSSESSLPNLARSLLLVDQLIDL
pIC50: −log10 of the molar value.
reported_metric: pIC50

Some solved cases for reference:
- test_smiles: "COCCC(=O)Nc1ccc2c(c1)OCc1cnccc1-2"
  reported_metric: "pIC50"
  value_reported: "5.92 to 7.00"
- test_smiles: "CC(C)C[C@H](N)C(=O)Nc1ccc2c(c1)OCc1cnccc1-2"
  reported_metric: "pIC50"
  value_reported: "8.00 to 9.00"
- test_smiles: "CC(C)(C)COC(=O)Nc1ccc2c(c1)OCc1cnccc1-2"
  reported_metric: "pIC50"
  value_reported: "5.92 to 7.00"
- test_smiles: "CCC(=O)Nc1ccc2c(c1)OCc1cnccc1-2"
  reported_metric: "pIC50"
  value_reported: "5.92 to 7.00"
- test_smiles: "N[C@H](CNc1ccc2c(c1)OCc1cnccc1-2)c1ccccc1"
  reported_metric: "pIC50"
  value_reported: "7.00 to 8.00"
- test_smiles: "CCCC(=O)Nc1ccc2c(c1)OCc1cnccc1-2"
  reported_metric: "pIC50"
  value_reported: "7.00 to 8.00"
- test_smiles: "O=C(Nc1ccc2c(c1)OCc1cnccc1-2)NC1CCCCC1"
  reported_metric: "pIC50"
  value_reported: "5.92 to 7.00"
- test_smiles: "O=C(CCO)Nc1ccc2c(c1)OCc1cnccc1-2"
  reported_metric: "pIC50"
  value_reported: "5.92 to 7.00"
- test_smiles: "CC(C)C(=O)Nc1ccc2c(c1)OCc1cnccc1-2"
  reported_metric: "pIC50"
  value_reported: "5.92 to 7.00"

Q) Name the recorded pIC50 of the molecule listed here: `NS(=O)(=O)CCCC(=O)Nc1ccc2c(c1)OCc1cnccc1-2`
A) 5.92 to 7.00

Cited source for all entries: patent US9708337B2
